zone of inhibition at 100 µg/mL values by entry
system: Staphylococcus aureus; test: Antimicrobial activity against Staphylococcus aureus NCIM 5021 at 100 ug/mL incubated for 24 hrs by agar disc diffusion method; type: functional; conditions: NCIM 5021, 24 h, read-out: IZ
READOUT_KIND: zone of inhibition at 100 µg/mL (mm)

> print(dat)
                                    compound  recorded.value
 1  COc1cc(/C=C/C(=O)N2CCN(c3ccccc3)CC2)cc2c1OCO2              12
 2  COc1cc(/C=C/C(=O)N2CCN(C(C)=O)CC2)cc2c1OCO2              11
 3  COc1cc(/C=C/C(=O)N2C(C)CCCC2C)cc2c1OCO2 (stereo not given)              11
 4  COc1ccccc1N1CCN(C(=O)/C=C/c2cc(OC)c3c(c2)OCO3)CC1              14
 5       COc1cc(/C=C/C(=O)N2CCNCC2)cc2c1OCO2              14
 6       COc1cc(/C=C/C(=O)N2CCCCC2)cc2c1OCO2              10
 7  COc1cc(/C=C/C(=O)N2CCCC(O)C2)cc2c1OCO2 (stereo not given)               8
 8    COc1cc(/C=C/C(=O)N2CCC(O)CC2)cc2c1OCO2              10
 9  COc1cc(/C=C/C(=O)N2CCN(c3ccccn3)CC2)cc2c1OCO2              14
10    COc1cc(/C=C/C(=O)N2CCC(C)CC2)cc2c1OCO2              12

* * *

system: Pseudomonas aeruginosa; assay: Antimicrobial activity against Pseudomonas aeruginosa NCIM 5029 at 100 ug/mL incubated for 24 hrs by agar disc diffusion method; type: functional; details: NCIM 5029, 24 h, read-out: IZ
zone of inhibition at 100 µg/mL values by entry
READOUT_KIND: zone of inhibition at 100 µg/mL

> print(dat)
                                   compound               tested.on  recorded.value
1  COc1cc(/C=C/C(=O)N2C(C)CCCC2C)cc2c1OCO2 (stereo not given)  Pseudomonas aeruginosa           11 mm
2  COc1cc(/C=C/C(=O)N2CCN(C(C)=O)CC2)cc2c1OCO2  Pseudomonas aeruginosa           14 mm
3  COc1cc(/C=C/C(=O)N2CCN(c3ccccn3)CC2)cc2c1OCO2  Pseudomonas aeruginosa           17 mm
4    COc1cc(/C=C/C(=O)N2CCC(O)CC2)cc2c1OCO2  Pseudomonas aeruginosa           11 mm
5  COc1cc(/C=C/C(=O)N2CCN(c3ccccc3)CC2)cc2c1OCO2  Pseudomonas aeruginosa           13 mm
